Reference for the values: patent US20170368082A1

# Test Summary: Brincidofovir equilibrium solubility in formulation vehicles
# Type: physicochemical
# Condition Context: pH 8, thermodynamic from solid
Readout Type: solubility thermodynamic

Inquiry: Look up solubility thermodynamic of CCCCCCCCCCCCCCCCOCCCOP(=O)(O)CO[C@H](CO)Cn1ccc(N)nc1=O and report it.
Reply text: > 270 mg/mL

* * *

# Test Summary: Phase 2 toxicokinetics of brincidofovir and cidofovir in plasma
# Format: in vivo, Sprague-Dawley CD rats
# Condition Context: male, Sprague-Dawley CD, rat, plasma, iv, 15 mg/kg, brincidofovir in plasma; 15 mg/kg 2-hour IV infusion, Male rats, Day 1
Readout Type: Cmax (ng/mL)
Answer format: numeric, ng/mL implied, no suffix.

Inquiry: Supply measured Cmax of CCCCCCCCCCCCCCCCOCCCOP(=O)(O)CO[C@H](CO)Cn1ccc(N)nc1=O [Brincidofovir] in your reply.
Reply text: 4370

* * *

# Test Summary: Comparison of toxicity of orally and intravenously administered brincidofovir (rat intestine)
# Format: in vivo
# Condition Context: Sprague-Dawley CD, rat, in vivo; IV, repeat dose 1 mg/kg; read-out: Exposure AUC
Readout Type: AUC
Put your answer as a value accompanied by its unit after it.

Inquiry: Specify AUC for CCCCCCCCCCCCCCCCOCCCOP(=O)(O)CO[C@H](CO)Cn1ccc(N)nc1=O [Brincidofovir] and stop.
Reply text: 410 ng·h/mL

* * *

# Test Summary: 28-day study toxicokinetics of brincidofovir and CDV in plasma
# Assay type: in vivo, Sprague-Dawley CD rats
# Condition Context: both sexes, Sprague-Dawley CD, rat, in vivo, 4 mg/kg, plasma brincidofovir, Day 29, 4 mg/kg, combined male and female rats, mean; read-out: Clast
Readout Type: concentration at 8 hr (ng/mL)
# unit: ng/mL | format: bare number

Inquiry: State, in one line, measured concentration at 8 hr of CCCCCCCCCCCCCCCCOCCCOP(=O)(O)CO[C@H](CO)Cn1ccc(N)nc1=O [Brincidofovir]
Reply text: 2.06

* * *

# Test Summary: 28-day study toxicokinetics of brincidofovir and CDV in plasma
# Format: in vivo, Sprague-Dawley CD rats
# Condition Context: both sexes, Sprague-Dawley CD, rat, in vivo, iv, 4 mg/kg, plasma brincidofovir; Day 1; 4 mg/kg; combined male and female; Mean
Readout Type: AUC(0-t)

Inquiry: Write down AUC(0-t) measured for item CCCCCCCCCCCCCCCCOCCCOP(=O)(O)CO[C@H](CO)Cn1ccc(N)nc1=O [Brincidofovir]
Reply text: 2220 ng·h/mL

* * *

# Test Summary: Phase 2 toxicokinetics of brincidofovir and cidofovir in plasma
# Type: in vivo, Sprague-Dawley CD rats
# Condition Context: Sprague-Dawley CD, rat, plasma, iv, 15 mg/kg, single 15 mg/kg; read-out: Median Tmax
Readout Type: Tmax (h)
Note: unit h is implicit; provide only the numeric part.

Inquiry: Using the record for CCCCCCCCCCCCCCCCOCCCOP(=O)(O)CO[C@H](CO)Cn1ccc(N)nc1=O [Brincidofovir] , state its measured Tmax.
Reply text: 1

* * *

# Test Summary: Brincidofovir equilibrium solubility in formulation vehicles
# Assay type: physicochemical
# Condition Context: pH 6.9, thermodynamic from solid
Readout Type: solubility thermodynamic

Inquiry: Answer with the recorded solubility thermodynamic of CCCCCCCCCCCCCCCCOCCCOP(=O)(O)CO[C@H](CO)Cn1ccc(N)nc1=O only.
Reply text: ~25 mg/mL

* * *

# Test Summary: Plasma BCV PK following single dose oral tablet administration (Table 105)
# Type: in vivo
# Condition Context: human, plasma, po, 200 mg, 200 mg Oral Tablet, N = 15, geometric mean
Readout Type: Cmax (ng/mL)
Could you give me the number in ng/mL? Just the number is fine.

Inquiry: # return recorded Cmax for input CCCCCCCCCCCCCCCCOCCCOP(=O)(O)CO[C@H](CO)Cn1ccc(N)nc1=O
Reply text: 622
